Where these numbers come from: patent US7405303B2

ASSAYED TARGET: GST-hERβ (ligand binding domain) (Homo sapiens)
Construct: made in house; host or cells: E. coli BL21 (DE3)pLYS S
Sequence (Q92731 264-498 limits assumed): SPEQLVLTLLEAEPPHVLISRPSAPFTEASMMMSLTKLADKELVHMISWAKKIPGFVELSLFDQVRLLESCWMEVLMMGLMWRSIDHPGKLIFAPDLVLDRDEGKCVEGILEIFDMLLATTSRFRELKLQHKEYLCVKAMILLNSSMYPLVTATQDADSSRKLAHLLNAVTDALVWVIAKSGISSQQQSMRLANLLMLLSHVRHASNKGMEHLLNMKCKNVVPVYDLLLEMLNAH
PROTOCOL TEXT: SPA competition binding assay, ERβ
METRIC: pKi
Give bare numbers, as −log10 of the molar value.

Which measured pKi value corresponds to CCc1nc2cc(O)ccc2c(Oc2ccc(/C=C/C(N)=O)cc2)c1-c1ccccc1 ?
7.55
